# System: Saccharomyces cerevisiae BY4741 SeMeCo community
# test_summary: z-score of subpopulation abundance vs DMSO median, subpopulation auxotrophic for U; higher = larger share of this subpopulation than in DMSO controls
# measurement_context: 10 µM; 24 h; SM minimal medium; subpopulation (auxotrophy): U
# z-score of subpopulation abundance >= 0.4 gives met, anything below gives not met

Hi, just wondering whether C[C@]12CC[C@@H]3c4ccc(O)cc4CC[C@H]3[C@@H]1CC[C@@H]2O [Estradiol] shows z-score of subpopulation abundance of 0.4 or higher.
not met

###

# System: Saccharomyces cerevisiae BY4741 SeMeCo community
# test_summary: z-score of subpopulation abundance vs DMSO median, subpopulation auxotrophic for HM; higher = larger share of this subpopulation than in DMSO controls
# measurement_context: 10 µM; 24 h; SM minimal medium; subpopulation (auxotrophy): HM
Structures can show the parent of a compound that is named as a salt.
Each record's class is read off its z-score of subpopulation abundance using these ranges: bin 0: < -0.8; bin 1: ≥ -0.8 and < -0.07; bin 2: ≥ -0.07

Field: example entries. Status: answers known.
compound	group_label
COc1ccc2[nH]c([S+]([O-])Cc3ncc(C)c(OC)c3C)nc2c1 (stereo not given) [Omeprazole Sodium]	bin 1
O=C(O)c1cc(/N=N/c2ccc(O)c(C(=O)O)c2)ccc1O [Olsalazine Sodium]	bin 0
Clc1ccc(COC(Cn2ccnc2)c2ccc(Cl)cc2Cl)cc1 (stereo not given) [Econazole nitrate]	bin 2

Consider CS(=O)(=O)Nc1ccc([N+](=O)[O-])cc1Oc1ccccc1 [Nimesulide] . To which z-score of subpopulation abundance class does it belong?
bin 2

Sort CC(=O)O[C@H]1C[C@@H]2CC[C@@H]3[C@H](CC[C@@]4(C)[C@H]3C[C@H]([N+]3(C)CCCCC3)[C@@H]4OC(C)=O)[C@@]2(C)C[C@@H]1N1CCCCC1 [Vecuronium Bromide] into one of the categories.
bin 1

# bin lookup: classify COC1C(O)CC(=O)OC(C)CC=CC=CC(OC2CCC(N(C)C)C(C)O2)C(C)CC(CC=O)C1OC1OC(C)C(OC2CC(C)(O)C(O)C(C)O2)C(N(C)C)C1O (stereo not given) by its z-score of subpopulation abundance
bin 1

Into which bin does this compound go? Nc1nc2[nH]cc(CCc3ccc(C(=O)N[C@@H](CCC(=O)O)C(=O)O)cc3)c2c(=O)[nH]1 [Pemetrexed Disodium Hydrate]
bin 0

Bin this entry: `Nc1nc2ccc(OC(F)(F)F)cc2s1`
bin 0

Which z-score of subpopulation abundance band matches `Oc1ccc(Cl)c2cccnc12` ?
bin 2

For C[N+]1(C)[C@@H]2CC[C@H]1C[C@@H](OC(=O)C(O)c1ccccc1)C2 (stereo not given in full) [Homatropine Methylbromide] , which z-score of subpopulation abundance bin applies?
bin 1

The entry to classify is COc1cccc2c1C(=O)c1c(O)c3c(c(O)c1C2=O)C[C@@](O)(C(C)=O)C[C@@H]3O[C@H]1C[C@H](N)[C@H](O)[C@H](C)O1 [Daunorubicin HCl] ; which class holds it?
bin 0

Record `C=C[C@]1(C)C[C@@H](OC(=O)CS[C@@H]2C[C@H]3CC[C@@H](C2)N3C)[C@]2(C)[C@H](C)CC[C@]3(CCC(=O)[C@H]32)[C@@H](C)[C@@H]1O` — which class?
bin 0

# classify by z-score of subpopulation abundance band: CN1CCCN=C1/C=C/c1cccc(O)c1 [Oxantel Pamoate]
bin 1

Bin this entry: `Oc1c(Cl)cc(Cl)cc1Sc1cc(Cl)cc(Cl)c1O`
bin 2
